Cited source: the supplement of paper PMC10567573

B1: TRIM15 (parent)
chain: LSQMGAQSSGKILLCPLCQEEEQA

# Variants of: B1
# ASSAY_OVERVIEW: protein stability index of a GFP-peptide fusion (GPS, HEK-293T) (PSI 1-6); higher = more stable;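 also: lentivirally expressed fusions sorted by FACS into six bins by GFP to DsRed ratio, PSI derived from sequencing read proportions per bin multiplied by bin number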
# REPORTED_CONDITIONS: c terminus: a fixed tail appended
Consider the following variants; for each one, report its protein stability index.
Number only, no unit.

[ask] So what's the measured protein stability index for this one? L1G
[reply] 3.96

[ask] Given G10L , state its recorded protein stability index.
[reply] 2.53

[ask] # query: protein stability index of entry S2T
[reply] 3.71

[ask] Query: protein stability index; subject: Q7M
[reply] 2.99

[ask] I would be grateful if you could share the reported protein stability index for G5Q .
[reply] 3.92

[ask] Recorded protein stability index for Q7W , please?
[reply] 3.84

[ask] Consider the variant shown here: C18A What is its recorded protein stability index?
[reply] 5.26

[ask] Which protein stability index value is on record for L14H ?
[reply] 3.36

[ask] protein stability index lookup needed for I12F , thanks.
[reply] 3.52

[ask] Would you kindly share the measured protein stability index for C15S ?
[reply] 4.98

[ask] So what's the measured protein stability index for this one? L17P
[reply] 5.04

[ask] Look at this variant and give its reported protein stability index. S9D
[reply] 3.7

[ask] What value of protein stability index has been reported for the following variant? Q3M
[reply] 2.96

[ask] # input variant: S9R ; wanted: its protein stability index
[reply] 2.99

[ask] Quick one: protein stability index of S8Q ?
[reply] 3.27

[ask] So what's the measured protein stability index for this one? S9T
[reply] 3.8

[ask] Item E22Q has what recorded protein stability index?
[reply] 3.2

[ask] Look at this variant and give its reported protein stability index. Q3N
[reply] 3.55

[ask] Which value of protein stability index has been reported for L17G in the records?
[reply] 4.13

[ask] Bench note: what protein stability index did A24N show?
[reply] 3.88

[ask] Please report the recorded protein stability index for L14I .
[reply] 3.91

[ask] Report protein stability index for K11I please.
[reply] 3.03
